- Tested on: SK-MEL-2 melanoma
- Assay comment: NCI tumour cell line growth inhibition, 48 h
Measurement name: TGI

Fc1ccc(C(OCCN2CC3CCC(C2)N3CCCc2ccccc2)c2ccc(F)cc2)cc1    12 µM
CCOC(=O)c1cccc(NC(=O)CI)c1    2.4 µM
O=c1cc(-c2ccccc2)[nH]c2nccn12    > 10 µM
Cc1n(Cc2ccccc2)nc2sc(N)n[n+]12    > 100 µM
CC[C@H](CO)Nc1nc(NCc2ccccc2)c2ncn(C(C)C)c2n1    44.6 µM
CN(C)CC1CCC2=C(C1=O)C(c1ccc(Cl)c(Cl)c1)C1=C(CCC(CN(C)C)C1=O)O2 (stereo unspecified)    30.7 µM
Cc1ccc(-c2csc(NC(=O)N3CCN(c4cc5c(cc4F)c(=O)c(C(=O)O)cn5C4CC4)CC3)n2)cc1    4.36 µM
CN1CC2CN(Cc3ccccc3)CCN2c2cccnc21 (stereo unspecified)    > 100 µM
NC(=O)NC12CC3CC(CC(F)(C3)C1)C2    > 100 µM
Cc1ccc(C(=O)NC2CCC2)cc1-c1ccc(C(=O)NCC2CC2)cc1    > 25 µM
CC1=C(C(=O)N[C@@H](CC(C)C)C(=O)O)N2C(=O)[C@@H](NC(=O)C(N)c3ccccc3)[C@H]2SC1 (stereo partly specified)    > 100 µM
Cc1cc(S(=O)(=O)/N=C(\[N-]S(=O)(=O)c2cc(Cl)sc2Cl)[n+]2ccc(N(C)C)cc2)c(S)cc1Cl    > 100 µM
COc1cnc2c(c1)C(=O)c1c-2n(CCCNC2=NCCS2)c(=O)c2cc(Cl)ccc12    34.3 µM
O=C(N/N=C/c1ccccc1)c1cccc2nc3ccccc3nc12    > 100 µM
O=C(N/N=C(/COc1ccccc1)N=Cc1cccnc1)c1ccncc1    > 100 µM
CC[C@@]1(O)C(=O)OCc2c1cc1n(c2=O)Cc2c-1nc1ccccc1c2/C=N/NC(=O)c1ccc(N)cc1    > 100 µM
Cc1nc2sccn2c1/C=C1/C(=O)Nc2cccc(Cl)c21    > 100 µM
COc1ccc(-c2c(C#N)c(S)n(NS(=O)(=O)c3ccccc3)c(=O)c2C#N)cc1    > 100 µM
c1ccc([I+]c2ccccc2)cc1    > 100 µM
O=C1C(c2cnc3ccccc3n2)=C(O)c2ccccc21    > 100 µM
COC(=O)/C=C1/OC(c2ccc(OC)cc2)=C(Cl)C1=O    33.6 µM
CCOC(=O)C1CCCCN1C(=O)c1ccc(Nc2cnc3cc(C(F)(F)F)ccc3n2)cc1 (stereo unspecified)    67.3 µM
CN(C)c1ccc(C=C2C(=O)NC(=S)NC2=O)c2ccccc12    > 100 µM
CCN(CC)c1oc(N(CC)CC)c(C(=O)Nc2ccccn2)c(=O)c1C(C)=O    > 100 µM
COc1ccc(C2=C(c3ccc(OC)c(OC)c3)C(=O)N3CCCC3C2)cc1 (stereo unspecified)    > 100 µM
CC1=C(C(=O)N(C)c2ccc(Cl)c(C(=O)OC(C)C)c2)SCCO1    > 100 µM
COc1ccc2nc3cc(Cl)ccc3c(SCC(=O)Nc3ccccc3-c3ccccc3NC(=O)CSc3c4ccc(Cl)cc4nc4ccc(OC)cc34)c2c1    > 100 µM
O=C(Nc1ccc(Oc2cccc(F)c2)c(Cl)c1)c1cnccn1    > 50 µM
CNC(=O)OCc1c2ccncc2c(C)c2c1[nH]c1ccc(OC)cc12    0.509 µM
COC(=O)CCC(NC(=O)OC(C)(C)C)C(=O)NC(Cc1ccc(NC(=O)CCCC(C)=O)cc1)C(=O)NC(CCC(=O)OC)C(=O)OC (stereo unspecified)    > 100 µM
CC1=CC2c3cccc4[nH]cc(c34)CC2N(C)C1 (stereo unspecified)    > 100 µM
CC(=O)OC(C)(C)CCC(=O)[C@](C)(O)[C@H]1[C@H](O)C[C@@]2(C)[C@@H]3CCc4c(cc(OC5OC(CO)C(O)C(O)C5O)c(O)c4C)C3(C)C(=O)C[C@]12C (stereo partly specified)    > 100 µM
CC(=O)[CH-]C(=O)c1ccccc1.CC(=O)[CH-]C(=O)c1ccccc1.CC(=O)[CH-]C(=O)c1ccccc1.[In+3]    34.2 µM
O=C(O)c1nc(-c2ccc(Cl)c(Cl)c2)nc2ccc(Cl)cc12    > 100 µM
Nc1c(C(=O)c2cccc(C#CCO)c2)cnn1-c1ccc(F)cc1    > 25 µM
COc1cc2c(cc1OC)[C@@H](Nc1ccc(F)cc1)C1COC(=O)[C@@H]1C2c1cc(OC)c(O)c(OC)c1 (stereo partly specified)    > 60.9 µM

* * *

- Tested on: UACC-62 melanoma
- Assay comment: NCI tumour cell line growth inhibition, 48 h
Measurement name: TGI

CCOC(=O)C1CCCCN1C(=O)c1ccc(Nc2cnc3cc(C(F)(F)F)ccc3n2)cc1 (stereo not drawn)    27.7 µM
Cc1ccc(Nc2nc3c(=O)n(C)c(=O)n(C)c3nc2Nc2ccc(C)cc2)cc1    25 µM
NC(=O)NC12CC3CC(CC(F)(C3)C1)C2    > 100 µM
O=c1cc(-c2ccccc2)[nH]c2nccn12    > 10 µM
C#CC1(O)CCCCCCCCC2(CCCCCCCC1)OCCO2    28.6 µM
CCOC(=O)c1nnc2c(C#N)c(-c3ccccc3)c(C)n2c1N    66.6 µM
Cc1cnc(CNC(=O)c2c(=O)c3ccc(N4CCCN(C)CC4)nc3n3c2sc2ccccc23)cn1    28.1 µM
N#CNC(=NCCc1c[nH]c2ccccc12)Oc1ccccc1    > 100 µM
CNc1nc(C(N)=O)c(N)s1    > 100 µM
Cc1ccc(-c2nc3nc(-c4ccccc4)nc(N4CCNCC4)c3o2)cc1    3.27 µM
COc1ccc(C2=C(c3ccc(OC)c(OC)c3)C(=O)N3CCCC3C2)cc1 (stereo not drawn)    > 100 µM
Cc1[nH]c(=O)nc(NNCc2ccc(Cl)cc2)c1C(=O)Nc1ccc(Cl)cc1    > 100 µM
C[C@]12CCC(=O)CC1CCCC2=O (stereo partly drawn)    > 100 µM
CCOC1CC(C)N(C(=O)c2ccccc2)O1 (stereo not drawn)    > 100 µM
CCOC(=O)c1c(NC(=S)Nc2ccccc2)sc2c1CCOC2    > 100 µM
COc1ccc(/C=C2\C[C@H]3[C@@H]4CCC5=CC(=O)CC[C@]5(C)[C@H]4CC[C@]3(C)C2=O)cc1OC    > 100 µM
O=C(N/N=C/c1ccccc1)c1cccc2nc3ccccc3nc12    > 100 µM
CCCN(CCC)C(=O)C(=O)c1c(N)[nH]n(-c2ccccc2)c1=O    > 100 µM

* * *

- System: HCC-2998 colon
- Assay comment: NCI tumour cell line growth inhibition, 48 h; in the data active = GI50 below about 0.43 µM; inactive = the rest
Classes used: active, inactive

CN(C)c1ccc(C(=NO)c2ccc(N(C)C)cc2)cc1    inactive
COc1cccc(-c2cc3c4c(nc5ccccc53)C(=O)c3cccnc3-c4n2)c1    inactive
O=[N+]([O-])c1ccc(N=Nc2ccc(O)c3ccccc23)cc1    inactive
COc1ccccc1CNCCCN1C(=O)c2ccc3c4c(ccc(c24)C1=O)C(=O)N(CCCN)C3=O    inactive
C=C1CC[C@@H]2[C@](C)(COC(C)=O)[C@H](OC(C)=O)CC[C@@]2(C)[C@@H]1CC(Nc1ccc(S(=O)(=O)Nc2ccc(Cl)nn2)cc1)C1=CCOC1=O (stereo partly specified)    inactive
O=C1c2ccc3c4c(ccc(c24)C(=O)N1CCCNCc1ccccc1Cl)C(=O)N(CCCNCc1ccccc1Cl)C3=O    active

* * *

- Test system: SF-268 CNS
- Assay comment: NCI tumour cell line growth inhibition, 48 h
Overview of recorded TGI for various compounds
Measurement name: TGI

O=[N+]([O-])c1ccc(NNN=Nc2ccc(-c3nc4ccccc4s3)cc2)c([N+](=O)[O-])c1    > 100 µM
COc1cc2c(c(OC)c1OC)-c1ccc(SC)cc1C(O)CC2 (centres undefined)    11.6 µM
O=C(OCCNC(=O)N1CC1)OCCNC(=O)N1CC1    > 10 µM
O=C(O)C1CCCCN1c1ccccc1[N+](=O)[O-] (centres undefined)    > 100 µM
CC1=C(C(=O)N(C)c2ccc(Cl)c(C(=O)OC(C)C)c2)SCCO1    > 100 µM
O=S(=O)(/C=C/CS(=O)(=O)c1ccccc1)c1ccccc1    > 100 µM
COc1cc([N+](=O)[O-])c(OC)cc1-c1nc2sccn2c1/C=N/N=C(N)N    35.3 µM
ON=C(CC(O)(C(F)(F)Cl)C(F)(F)Cl)CC(O)(C(F)(F)Cl)C(F)(F)Cl    > 10 µM
CC1(C)N=C(C2CCCN2C(=O)OCc2ccccc2)OC1=O (centres undefined)    > 100 µM

* * *

- Test system: A498 renal
- Assay comment: NCI tumour cell line growth inhibition, 48 h
# GI50 annotations
Measurement name: GI50

COc1ccccc1CNCCCN1C(=O)c2ccc3c4c(ccc(c24)C1=O)C(=O)N(CCCN)C3=O    1570 nM
O=C(Nc1ccc(Oc2cccc(F)c2)c(Cl)c1)c1cnccn1    3770 nM
Nc1c(C(=O)c2cccc(-c3cccnc3)c2)cnn1-c1ccc(F)cc1F    2640 nM
